Numbers sourced from ChEMBL document CHEMBL2417551.

Recorded inhibition by entry
# System Name: O-acetylserine sulfhydrylase (Mycobacterium tuberculosis) (UniProt P9WP55)
# Test Settings: at 500 nM
# Description: Inhibition of Mycobacterium tuberculosis N-terminal His-6-tagged recombinant CysK1 expressed in Escherichia coli BL21 (DE3) at 500 nM after 20 mins by spectrophotometric analysis
Please give a number only; it is taken to be in %.

CCN1C(=O)/C(=C/c2ccc(OC)c(OC)c2)S/C1=N\c1cccc(C(=O)O)c1 = 90.9
CCN1C(=O)/C(=C/c2cccc(O)c2)S/C1=N\c1cccc(C(=O)O)c1 = 52.8
C=CCN1C(=O)/C(=C/c2ccc(OCC(=O)O)cc2)S/C1=N\c1cccc(C(C)=O)c1 = 0
CCN1C(=O)/C(=C/c2ccccc2OCC(=O)OC)S/C1=N\c1cccc(C(=O)O)c1 = 31
CCN1C(=O)/C(=C/c2ccc(OCC(=O)O)cc2)S/C1=N\c1cccc(C(=O)O)c1 = 36.9
CC(C)N1C(=O)/C(=C/c2ccccc2OCC(=O)O)S/C1=N\c1cccc(C(=O)O)c1 = 18.5
CN1C(=O)/C(=C/c2ccc(O)cc2)S/C1=N\c1cccc(C(=O)O)c1 = 92.6
CCN1C(=O)/C(=C/c2ccc(F)cc2)S/C1=N\c1cccc(C(=O)O)c1 = 68.3
CN1C(=O)/C(=C/c2ccc(Br)cc2)S/C1=N\c1cccc(C(=O)O)c1 = 70.5
CCCN1C(=O)/C(=C/c2ccc(O)cc2)S/C1=N\c1cccc(C(=O)O)c1 = 95.1

[Q] Quick one: inhibition of `CCN1C(=O)/C(=C/c2ccc(Cl)cc2Cl)S/C1=N\c1cccc(C(=O)O)c1` ?
[A] 45.4

---

# System Name: O-acetylserine sulfhydrylase (Mycobacterium tuberculosis)
# Test Settings: at 500 nM
Would you mind labelling by inhibition? At or over 60% is condition met, under is condition not met.

Consider the following illustrative entries.
Cc1cccc(/C=C2\S/C(=N\c3cccc(C(=O)O)c3)N(C)C2=O)c1 = condition not met
CCCCN1C(=O)/C(=C/c2ccc(O)cc2)S/C1=N\c1cccc(C(=O)O)c1 = condition met

[Q] Say whether `C=CCN1C(=O)/C(=C/c2ccc(OCC(=O)OC)cc2)S/C1=N\c1cccc(C(=O)O)c1` shows inhibition of 60% or more.
[A] condition not met

[Q] Say whether `CN1C(=O)/C(=C/c2ccccc2OCc2ccccc2)S/C1=N\c1cccc(C(=O)O)c1` shows inhibition of 60% or more.
[A] condition not met

[Q] Say whether `CCN1C(=O)/C(=C/c2ccccc2Br)S/C1=N\c1cccc(C(=O)O)c1` shows inhibition of 60% or more.
[A] condition not met

[Q] Say whether `CCN1C(=O)/C(=C/c2ccc(O)cc2)S/C1=N\c1cccc(C(C)=O)c1` shows inhibition of 60% or more.
[A] condition not met

[Q] Say whether `CC(C)N1C(=O)/C(=C/c2ccc(O)cc2)S/C1=N\c1cccc(C(=O)O)c1` shows inhibition of 60% or more.
[A] condition met

[Q] Say whether `COC(=O)COc1ccccc1/C=C1\S/C(=N\c2cccc(C(=O)O)c2)N(C(C)C)C1=O` shows inhibition of 60% or more.
[A] condition not met

---

Below are pIC50 values measured for O-acetylserine sulfhydrylase (Mycobacterium tuberculosis).
# pIC50 is unitless: minus log10 of the molar concentration; print number only

C=CCN1C(=O)/C(=C/c2ccc(O)cc2)S/C1=N\c1cccc(C(=O)O)c1 = 6.96

[Q] Quick one: pIC50 of `COc1ccc(/C=C2\S/C(=N\c3cccc(C(=O)O)c3)N(C)C2=O)cc1` ?
[A] 7.47
